test system: L-6 rat mycoblast cells; assay: cells; conditions: Rattus norvegicus, L6, read-out: CT IC50
Structures can show the parent of a compound that is named as a salt.
Measured Quantity: IC50 (µM)

molecule="Cl.N=C(N)c1ccc(-c2ccc(-c3ccc(C(=N)N)cc3)c(C(F)(F)F)c2)cc1 [Compound 23b, hydrochloride salt]" assay_system="L-6 rat mycoblast cells" measured_quantity=IC50 op== assay_value=9
molecule="CC(=O)O.N=C(N)c1ccc(-c2ccc(-c3ccc(C(=N)N)o3)cn2)cc1 [Compound 10, acetate salt]" assay_system="L-6 rat mycoblast cells" measured_quantity=IC50 op== assay_value=30.9
molecule="Cl.N=C(N)c1ccc(-c2ccc(-c3ccc(C(=N)N)cc3)c(F)c2)cc1 [Compound 23a, hydrochloride salt]" assay_system="L-6 rat mycoblast cells" measured_quantity=IC50 op== assay_value=6.4
molecule="CC(=O)O.N=C(N)c1ccc(-c2ccc(-c3ccc(C(=N)N)cc3)cc2)cc1 [Compound 20, acetate salt]" assay_system="L-6 rat mycoblast cells" measured_quantity=IC50 op== assay_value=22.1
molecule="CONC(=N)c1ccc(-c2ccc(-c3ccc(C(=N)NOC)o3)cc2)cc1 [Compound 4]" assay_system="L-6 rat mycoblast cells" measured_quantity=IC50 op=> assay_value=206
molecule="CON=C(N)c1ccc(-c2ccc(-c3ccc(C(N)=NOC)cc3)cc2)cc1 [Compound 21]" assay_system="L-6 rat mycoblast cells" measured_quantity=IC50 op== assay_value=118
molecule="N=C(N)c1ccc(-c2ccc(-c3ccc(C(=N)N)nc3)cc2)cn1 [Compound 66, hydrochloride salt]" assay_system="L-6 rat mycoblast cells" measured_quantity=IC50 op== assay_value=31.3
molecule="CC(=O)O.N=C(N)c1ccc(-c2ccc(-c3ccc(C(=N)N)o3)cc2)cc1 [Compound 5, acetate salt]" assay_system="L-6 rat mycoblast cells" measured_quantity=IC50 op== assay_value=2
molecule="N=C(NO)c1ccc(-c2ccc(-c3ccc(C(=N)NO)o3)cc2)cc1 [Compound 3]" assay_system="L-6 rat mycoblast cells" measured_quantity=IC50 op== assay_value=106

* * *

The following molecules are listed with their measured IC50 values.
test system: Plasmodium falciparum (P. f.); test: In vitro antiprotozoal activity against P. f.; assay type: cell-based; settings: Plasmodium falciparum, Table 4
Counter-ions that a name gives are not always drawn.
Measured Quantity: IC50 (nM)

molecule="N=C(N)c1ccc(-c2ccc(-c3ccc(C(=N)N)cn3)cn2)cc1 [Compound 94, hydrochloride salt]" measured_quantity=IC50 unit_string=nM assay_value=3
molecule="N=C(N)c1ccc(-c2ccc(-c3ccc(C(=N)N)nc3)cn2)cc1 [Compound 89, hydrochloride salt]" measured_quantity=IC50 unit_string=nM assay_value=1
molecule="N=C(N)c1cnc(-c2ccc(-c3cnc(C(=N)N)cn3)cc2)cn1 [Compound 71, hydrochloride salt]" measured_quantity=IC50 unit_string=nM assay_value=5170

* * *

test system: DNA minor groove; assay: ΔTm of linear triaryl dications (DNA minor groove binding); details: Table 1
Counter-ions that a name gives are not always drawn.
# ΔTm listing for each entry below
Measured Quantity: ΔTm (°C)

compound="Cl.N=C(N)c1ccc(-c2ccc(-c3ccc(C(=N)N)cc3)c(C(F)(F)F)c2)cc1 [Compound 23b]" measured_quantity=ΔTm assay_value=10.1
compound="N=C(N)Nc1ccc(-c2ccc(-c3ccc(NC(=N)N)cc3)cc2)cc1 [Compound 48, 4,4″-Bis-guanidino-[1,1′;4′,1″]terphenyl]" measured_quantity=ΔTm assay_value=12.2
compound="Cl.N=C(N)c1ccc(-c2ccc(-c3ccc(C(=N)N)cc3)c(F)c2)cc1 [Compound 23a]" measured_quantity=ΔTm assay_value=15.1
compound="N=C(N)c1ccc(-c2ccc(-c3ccc(C(=N)N)nc3)cc2)cn1 [Compound 66, hydrochloride salt]" measured_quantity=ΔTm assay_value=16.1
compound="CC(=O)O.N=C(N)c1ccc(-c2ccc(-c3ccc(C(=N)N)cc3)cc2)cc1 [Compound 20]" measured_quantity=ΔTm assay_value=19.1
